Numbers sourced from patent US20180044434A1.

target-or-test-system: T1, Ala mutant having 3-amino acid substitution, SEQ ID NO: 49
T1 peptide: EENMDDQWMQDEMEIAA
assay-method-text: ELISA, coated peptide
// reported OD 490/630 nm for each item listed
Answer field: number only, no words.

Use the examples below as a reference point.
H7 (antibody, V domains shown, Chicken variable regions in a mouse chimeric antibody (IgG1); also called anti-PAD4 antibody H7) VH: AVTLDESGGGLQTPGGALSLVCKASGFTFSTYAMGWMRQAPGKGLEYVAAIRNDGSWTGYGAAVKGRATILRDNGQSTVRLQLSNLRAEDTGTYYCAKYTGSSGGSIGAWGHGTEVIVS VL: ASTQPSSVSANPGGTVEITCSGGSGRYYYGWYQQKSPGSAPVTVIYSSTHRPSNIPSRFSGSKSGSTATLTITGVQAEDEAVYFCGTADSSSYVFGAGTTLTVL ... 1.86
A11 (antibody, V domains shown, Chicken variable regions in a mouse chimeric antibody (IgG1); also called anti-PAD4 antibody A11) VH: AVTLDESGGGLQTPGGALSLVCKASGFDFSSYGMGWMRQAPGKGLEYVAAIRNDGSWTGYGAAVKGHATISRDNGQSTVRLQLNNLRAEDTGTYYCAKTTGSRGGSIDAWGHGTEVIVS VL: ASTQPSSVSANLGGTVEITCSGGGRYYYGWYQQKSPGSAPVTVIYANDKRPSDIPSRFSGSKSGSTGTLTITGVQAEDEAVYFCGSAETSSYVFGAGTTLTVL ... 1.89

Now for another entry.
Query block: Fill in the blank: the reported OD 490/630 nm of G8 (antibody, V domains shown, Chicken variable regions in a mouse chimeric antibody (IgG1); also called anti-PAD4 antibody G8) VH: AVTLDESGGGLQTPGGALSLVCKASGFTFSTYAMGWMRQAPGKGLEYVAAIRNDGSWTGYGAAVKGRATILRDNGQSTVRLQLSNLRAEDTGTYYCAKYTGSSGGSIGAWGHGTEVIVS VL: ASTQPSSVSANLGGTVEITCSGGNRNYYYGWYQQKSPGSAPVTLIYANDKRPSNIPSRFSGSKSGSTGTLTITGVQAEDEAVYFCGTADTGKYVFGAGTTLTVL is ____.
Result block: 1.86
